- assay_summary: folding enthalpy; higher = less favourable; fluorescence melt of hairpins on a sequencing array, two-state fit
- condition_details: sodium 0.088 M
property: folding enthalpy (kcal/mol)
Quick reminder: number only, in kcal/mol, skip the unit.

Quote folding enthalpy reported for GCAGGCACGAAAGTGTGC (((..(((....)))))) please.
-14.9

Tell me folding enthalpy reported for GATTTACGAAAGTAGATC (((.(((....))).)))
-29.5

Tell us which folding enthalpy value is on record for GATCACAGTCGTGATC ((((((....))))))
-44.9

Please report the measured folding enthalpy for GCGCACGGAAACGTGCAC (.(((((....))))).)
-10.1

Answer with the recorded folding enthalpy of GGCAAAACGAAAGTTGCC (((..(((....)))))) only.
-38.6

Identify measured folding enthalpy associated with GATCGTAGTTACGATC ((((((....))))))
-30.9
